Data credit: ChEMBL document CHEMBL2202987

assay_method_text: Cytotoxicity against human HuH7 cells by tetrazolium dye method
Format: cell-based, Huh-7
observable: CC50

For every record below, what is its CC50?
1. Cc1ncnc2c1ccn2[C@@H]1C=C(CO)[C@@H](O)[C@H]1O
2. Cc1ncnc2c1c(Br)cn2[C@@H]1C=C(CO)[C@@H](O)[C@H]1O
3. Cc1ncnc2c1c(F)cn2[C@@H]1C=C(CO)[C@@H](O)[C@H]1O
4. C=Cc1cn([C@@H]2C=C(CO)[C@@H](O)[C@H]2O)c2ncnc(C)c12

Ans:
1: > 100 µM; 2: > 100 µM; 3: > 100 µM; 4: 52.8 µM

For every record below, what is its CC50?
1. Cc1ncnc2c1c(Cl)cn2[C@@H]1C=C(CO)[C@@H](O)[C@H]1O
2. Cc1ncnc2c1c(I)cn2[C@@H]1C=C(CO)[C@@H](O)[C@H]1O
3. CCCCn1c(=O)c2cc(OC)ccc2c2cc(C(O)(C(F)(F)F)C(F)(F)F)c(OC)cc21
4. C#Cc1cn([C@@H]2C=C(CO)[C@@H](O)[C@H]2O)c2ncnc(C)c12

Ans:
["> 100 µM", "> 100 µM", "> 10 µM", "> 100 µM"]
